- protocolDescription: NCI Yeast Anticancer Drug Screen. Data for the rad50 strain (AID 155);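 further: 0% = growth of vehicle-only cultures of the same strain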
- experimentalParameters: S. cerevisiae rad50 strain growth inhibition; at 50.0 µM; stronger effect = higher value
This is part of a sample that, as a whole, favours compounds with a hit. Of some 79,000 tested, about 15% had one in any assay.
Record Yes whenever growth inhibition is at 30% or higher; record No when lower.

CCOC(=O)c1ncn(C2OC(CO)C(O)C2O)c1N (stereo not given)    No
Cc1nc2ccccc2c(=O)n1-c1ccc(-c2nnc(Sc3nnc(-c4ccc(-n5c(C)nc6ccccc6c5=O)cc4)n3-c3ccccc3)n2-c2ccccc2)cc1    No
COc1c(OCC(O)CN2CCCCC2)c2c(C)coc2c2ccoc12 (stereo not given)    Yes

Check this compound for growth inhibition at or above 30%: COc1cccc(N2C(=O)CC(=P(c3ccccc3)(c3ccccc3)c3ccccc3)C2=O)c1
Yes

Check this compound for growth inhibition at or above 30%: O=C(NC(Cc1ccccc1)C(=O)O)c1ccccc1 (stereo not given)
No

---

Attribute: growth inhibition
- protocolDescription: NCI Yeast Anticancer Drug Screen. Data for the mlh1 rad18 strain (AID 175)
- experimentalParameters: S. cerevisiae mlh1 rad18 strain growth inhibition; at 50.0 µM; stronger effect = higher value
- Experimental: Growth inhibition of yeast strains with defined genetic alterations is measured as a screen for potential anti-cancer activity. Selected strains with alterations in DNA damage repair or cell cycle control were exposed to compounds and growth inhibition was measured relative to vehicle treated controls. The strain used in this assay is mlh1 rad18
This is part of a sample that, as a whole, favours compounds with a hit. Of some 79,000 tested, about 15% had one in any assay.
The reply should be a number in %, with the unit left off.

Worked cases, growth inhibition given:
CC(C)(C)C(=O)C(C(=O)c1ccccc1)C(=O)C(C)(C)C    -30.2
O=c1[nH]cc(NCCc2ccccc2)c(=O)[nH]1    1.6
O=C(CCl)OCCCc1ccccc1    36
CC(=O)NC(CCCCNC(=O)NCCCl)C(=O)NCc1ccccc1 (configuration not stated)    -8.9
Cc1cc(=O)c2c(=O)n(-c3ccccc3)[nH]c2[nH]1    -6.35
CC(C)(C#CCOC(=O)c1ccc([N+](=O)[O-])cc1)OC(=O)c1ccc([N+](=O)[O-])cc1    5.35

Tell us which growth inhibition value is on record for CCOc1nc(N)nc(C)c1N=Nc1ccccc1OC
13.5

Tell us which growth inhibition value is on record for CC(=O)OCC1OC(n2cc(I)c(=O)[nH]c2=O)C(OC(C)=O)C(OC(C)=O)C1OC(C)=O (configuration not stated)
-13.2

Tell us which growth inhibition value is on record for CC1=CC2=NC(=O)C(c3ccccc3)C(=O)N2C=C1 (configuration not stated)
-19.8

Tell us which growth inhibition value is on record for CC1CC(C)NC(=O)N1 (configuration not stated)
0.4

Tell us which growth inhibition value is on record for CC(=O)CC(=O)Nc1cccc(O)c1
-2.85

---

- protocolDescription: NCI Yeast Anticancer Drug Screen. Data for the rad50 strain (AID 155);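 further: 0% = growth of vehicle-only cultures of the same strain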
- experimentalParameters: S. cerevisiae rad50 strain growth inhibition; at 50.0 µM; stronger effect = higher value
Compounds without any hit were thinned out: in the full panel of roughly 79,000, 15% have a hit.
measurementName: growth inhibition (%)
The reply should be a number in %, with the unit left off.

Worked cases, growth inhibition given:
COC(=O)C1=CN(c2ccccc2)C(=O)C1    5.5
Cc1ccc(-c2cs/c(=N\N=C3/CSC(=O)N3Cc3ccccc3)n2-c2cccc(C)c2)cc1    24.4
Nc1ncnc2c1ncn2C1CCC(COS(N)(=O)=O)C1 (stereo unspecified)    4.3
O=C(OCc1ccccc1CN1CCCC1)c1cccc(Cl)c1    2.8
NC(=O)CCC(NS(=O)(=O)c1ccc(NC(=O)c2ccccc2)cc1)C(=O)O (stereo unspecified)    4

Switching to the query record.
Tell us which growth inhibition value is on record for O=C1OC(c2cccc3ccc(Br)cc23)c2ccccc21 (stereo unspecified)
21.1

---

Attribute: growth inhibition
- protocolDescription: NCI Yeast Anticancer Drug Screen. Data for the mlh1 rad18 strain (AID 175)
- experimentalParameters: S. cerevisiae mlh1 rad18 strain growth inhibition; at 50.0 µM; stronger effect = higher value
Compounds without any hit were thinned out: in the full panel of roughly 79,000, 15% have a hit.
The reply should be a number in %, with the unit left off.

O=C1NC(=O)C(c2ccsc2)(c2cccs2)N1 (centres undefined)    -1.65
CC(CO)(CO)CN1CCCCC1    1.8
Cc1cccc(C)c1NC(=O)C(=O)Cc1nc2ccccc2s1    -6.8
COc1ccc2[nH]c3c4c(c(C)cc3c2c1)OC(C)(C)C=C4    -6.15
N#Cc1ccc(OC(=O)Nc2ccccc2Cl)cc1    13.8

Tell us which growth inhibition value is on record for CC(=O)OCC1OC(OC(C)=O)C(NS(=O)(=O)c2ccc(C)cc2)C(OC(C)=O)C1OC(C)=O (centres undefined)
-4.65

Tell us which growth inhibition value is on record for O=[N+]([O-])c1ccc(N/N=C2\C=CCCC2)c([N+](=O)[O-])c1
17.1

Tell us which growth inhibition value is on record for C[N+](C)(CC(=O)Nc1ccc(Cl)cc1)Cc1ccc2c(c1)CCCC2
99.7

Tell us which growth inhibition value is on record for Cn1cnc2c(Cl)ncnc21
5.65

Tell us which growth inhibition value is on record for COC(=O)c1cc2c(cc1CC(Cc1ccc3c(c1)CCC3)C(=O)OC)CCC2 (centres undefined)
-4.65

Tell us which growth inhibition value is on record for CN1C(=O)C2C=CC1c1ccccc12 (centres undefined)
2.55

Tell us which growth inhibition value is on record for NC(=O)CC[n+]1ccc(C(=O)O)cc1
-5.05

Tell us which growth inhibition value is on record for CC(=O)OCC1OC(OC(C)=O)C(NC(=O)CN(Cc2ccccc2)S(C)(=O)=O)C(OC(C)=O)C1OC(C)=O (centres undefined)
-4.05

Tell us which growth inhibition value is on record for O=C1Sc2ccccc2C(=O)N2CCCC12 (centres undefined)
-10.2

Tell us which growth inhibition value is on record for O=C(c1ccc(Cl)cc1)N(C(=S)N1CCN(c2ccccn2)CC1)C1CCCCC1
19.4

Tell us which growth inhibition value is on record for O=C(Nc1ccc(Br)cc1)Oc1ccc(-c2ccccc2)cc1
18.4

Tell us which growth inhibition value is on record for O=S(=O)(c1ccc(Br)cc1)N1CCN(S(=O)(=O)c2ccc(Br)cc2)CC1
-10.1

Tell us which growth inhibition value is on record for Nc1cccc(S(=O)(=O)Nc2ccccc2)c1
10

Tell us which growth inhibition value is on record for CCCCN(CCCC)CCC(O)c1cc(C(F)(F)F)nc2c(C(F)(F)F)cccc12 (centres undefined)
41.1

Tell us which growth inhibition value is on record for NC(=O)C(CNCc1ccccc1)NCc1ccccc1 (centres undefined)
-11.4

---

- protocolDescription: NCI Yeast Anticancer Drug Screen. Data for the bub3 strain (AID 167)
- experimentalParameters: S. cerevisiae bub3 mutant strain, at 50.0 µM, stronger effect = higher value
Compounds without any hit were thinned out: in the full panel of roughly 79,000, 15% have a hit.
Attribute: growth inhibition
The reply should be a number in %, with the unit left off.

Worked cases, growth inhibition given:
Clc1ccc(CSc2cnnc3c(Br)cccc23)c(Cl)c1    1.8
O=c1oc2ccc([N+](=O)[O-])cc2cc1-c1csc(-c2ccccc2)n1    -26.3
N#CCCC1(CCC#N)CCCCCCC(CCC#N)(CCC#N)C(O)C1O (configuration not stated)    -15.2
CCC1C2C=CC(CC2)N1S(=O)(=O)c1ccc(C)cc1 (configuration not stated)    13.2
CC(C)Cc1cn(O)c2nc(=N)nc(N)c-2n1    5.8

Switching to the query record.
Tell us which growth inhibition value is on record for CC1CC(C#N)=C(NC#N)NC1=O (configuration not stated)
-0.75

---

Attribute: growth inhibition
- protocolDescription: NCI Yeast Anticancer Drug Screen. Data for the mec2-1 strain (AID 157)
- experimentalParameters: S. cerevisiae mec2-1 strain, at 50.0 µM, stronger effect = higher value
Compounds without any hit were thinned out: in the full panel of roughly 79,000, 15% have a hit.
The reply should be a number in %, with the unit left off.

Worked cases, growth inhibition given:
CC1(C)OC(=O)ON(Cc2ccccc2)C1=O    -2.85
C(=C/c1ccc2c(c1)OCO2)/c1ccccc1    10.3
COc1ccc([N+](=O)[O-])cc1NS(=O)(=O)c1ccc(NC(C)=O)cc1    18.7
O=C(N/N=C\C(F)(F)F)c1ccncc1    -10.8
CCOC(=O)C(NC(=O)Cc1ccccc1)C1NC(C(=O)O)CS1 (configuration not stated)    1.8
CCOc1ccc(NC(=O)/C=C/c2ccco2)cc1    -8.75
N#CC1CNCCC1=N (configuration not stated)    -3.2
CC(=O)n1[nH]c(=O)c2ncccc2c1=O    7.6

Tell us which growth inhibition value is on record for O=C(c1ccccc1)C1(c2ccccc2)C(C(=O)c2ccccc2)(c2ccccc2)S1(=O)=O (configuration not stated)
-13.5

Tell us which growth inhibition value is on record for O=C(O)/C(=C(\CO)c1ccccc1)c1ccccc1
9.25
